System: Staphylococcus aureus
test.details: Antibacterial screening (MIC), broth microdilution assay
Format: cell-based
condition.label: Staphylococcus aureus; broth microdilution per NCCLS M7-A5; strain not given; read-out: MIC Staph. aureus
Method: An initial screening for in vitro activity was conducted in a broth microtiter assay. The synthesized compounds were assayed against several […] such as Staphylococcus aureus and 2 different strains of E. coli (including a type strain and an antibiotic-susceptible strain). Following initial screening MICs were determined. Staphylococcus aureus ATCC29213 Staphylococcus aureus ATCC33591 (MRSA) Eschericia coli ATCC25922 Eschericia coli ESS […]
observable: MIC (µM)
Record the value in µM, omitting the unit from your answer.

Take a look at these entries with their results.
[[record]]
molecule = "FC(F)(F)c1cc(NC(=S)NCc2cccc(Cl)c2)cc(C(F)(F)F)c1 [Compound A]"
unit_name = "µM"
observed_result = 0.6

[[record]]
molecule = "FC(F)(F)c1cc(NC(=S)NCCOc2ccc(Cl)c(Cl)c2)cc(C(F)(F)F)c1 [Compound E]"
unit_name = "µM"
observed_result = 0.3

[[record]]
molecule = "Cc1onc(-c2c(Cl)cccc2Cl)c1C(=O)N[C@@H]1C(=O)N2[C@@H]1SC(C)(C)[C@@H]2C(=O)O [Dicloxacillin, reference compound]"
unit_name = "µM"
observed_result = 0.5

[[record]]
molecule = "FC(F)(F)c1cc(NC(=S)NCCc2cccc(Cl)c2)cc(C(F)(F)F)c1 [Compound G]"
unit_name = "µM"
observed_result = 0.6

[[record]]
molecule = "FC(F)(F)c1cc(NC(=S)NCCc2ccc(Cl)cc2Cl)cc(C(F)(F)F)c1 [Compound D]"
unit_name = "µM"
observed_result = 0.3


Param item = CC(NC(=S)Nc1cc(C(F)(F)F)cc(C(F)(F)F)c1)c1ccc(Br)cc1 (stereo not drawn) [Compound C] ; retrieve measured MIC. 0.3

====

Test system: erythrocyte
test.details: Erythrocyte hemolysis assay
Type: cell-based
condition.label: at 4x MIC
observable: Haemolysis 4x MIC (%)
Provide the reading as a plain figure in %.

[[record]]
compound = "O=C(O)c1cn(C2CC2)c2cc(N3CCNCC3)c(F)cc2c1=O [Ciprofloxicin, reference compound]"
observable = "Haemolysis 4x MIC"
unit_name = "%"
observed_result = 0


Below: the item to evaluate.
Can you share its Haemolysis 4x MIC? I mean this compound: CN[C@H](CC(C)C)C(=O)N[C@H]1C(=O)N[C@@H](CC(N)=O)C(=O)N[C@H]2C(=O)N[C@H]3C(=O)N[C@H](C(=O)N[C@H](C(=O)O)c4cc(O)cc(O)c4-c4cc3ccc4O)[C@H](O)c3ccc(c(Cl)c3)Oc3cc2cc(c3O[C@@H]2O[C@H](CO)[C@@H](O)[C@H](O)[C@H]2O[C@H]2C[C@](C)(N)[C@H](O)[C@H](C)O2)Oc2ccc(cc2Cl)[C@H]1O [Vancomycin, reference compound] 0

====

Tested on: erythrocyte
test.details: Erythrocyte hemolysis assay
Type: cell-based
condition.label: concentration giving 50% haemolysis
observable: 50% Haemolysis (µM)
State just the number; it will be interpreted in µM.

Below, each entry is followed by its recorded 50% Haemolysis result.
[[record]]
molecule = "O=C(O)c1cn(C2CC2)c2cc(N3CCNCC3)c(F)cc2c1=O [Ciprofloxicin, reference compound]"
observable = "50% Haemolysis"
observed_result = 150

[[record]]
molecule = "FC(F)(F)c1cc(NC(=S)NCc2ccc(Cl)cc2Cl)cc(C(F)(F)F)c1 [Compound B]"
observable = "50% Haemolysis"
observed_result = 150

[[record]]
molecule = "CN[C@H](CC(C)C)C(=O)N[C@H]1C(=O)N[C@@H](CC(N)=O)C(=O)N[C@H]2C(=O)N[C@H]3C(=O)N[C@H](C(=O)N[C@H](C(=O)O)c4cc(O)cc(O)c4-c4cc3ccc4O)[C@H](O)c3ccc(c(Cl)c3)Oc3cc2cc(c3O[C@@H]2O[C@H](CO)[C@@H](O)[C@H](O)[C@H]2O[C@H]2C[C@](C)(N)[C@H](O)[C@H](C)O2)Oc2ccc(cc2Cl)[C@H]1O [Vancomycin, reference compound]"
observable = "50% Haemolysis"
observed_result = 150

[[record]]
molecule = "FC(F)(F)c1cc(NC(=S)NCc2ccc(Cl)cc2)cc(C(F)(F)F)c1 [Compound F]"
observable = "50% Haemolysis"
observed_result = 150

[[record]]
molecule = "CC(NC(=S)Nc1cc(C(F)(F)F)cc(C(F)(F)F)c1)c1ccc(Br)cc1 (stereo not drawn) [Compound C]"
observable = "50% Haemolysis"
observed_result = 37.5


Data request, read-out 50% Haemolysis, for FC(F)(F)c1cc(NC(=S)NCc2cccc(Cl)c2)cc(C(F)(F)F)c1 [Compound A] 75

// 50% Haemolysis lookup, key: FC(F)(F)c1cc(NC(=S)NCCOc2ccc(Cl)c(Cl)c2)cc(C(F)(F)F)c1 [Compound E] 18.8

Query (molecule): Cc1onc(-c2c(Cl)cccc2Cl)c1C(=O)N[C@@H]1C(=O)N2[C@@H]1SC(C)(C)[C@@H]2C(=O)O [Dicloxacillin, reference compound] ; field requested: 50% Haemolysis 150

Using the record for FC(F)(F)c1cc(NC(=S)NCCc2cccc(Cl)c2)cc(C(F)(F)F)c1 [Compound G] , report its 50% Haemolysis. 75
